Tested on: PC-3 prostate
assaySummary: NCI-60 one-dose screen, 48 h
settings: 10 µM unless noted
The panel holds about 83,000 compounds, 20% with a hit somewhere; the sample as a whole holds those more often. Activity calls are given as the source filed them. How the source made its calls: active means growth percent below 10; inactive means the rest.
Hi! Could you answer with just one of these? active, inactive

CCCCCN1C(=O)CCC1=O: inactive
Oc1c(N=Nc2nn[nH]n2)ccc2ccccc12: inactive
O=C1c2cccc3c([N+](=O)[O-])ccc(c23)C(=O)N1CCCCl: active
CCN(CC)CCCCCCCNc1c2ccc(Cl)cc2nc2ccc(OC)cc12: active
CC1C(=O)NC2=Nc3ccccc3C(=O)NN21 (configuration not stated): inactive
Cc1csc(C#Cc2cncc(O)c2)n1: inactive
O=C(c1ccccc1)C(CN1CCCCC1)c1ccccc1 (configuration not stated): inactive
CC1CN(C2CCCCC2)C(=O)NC1=O (configuration not stated): inactive

Inquiry: Each molecule tested received a call. Report the one for Cc1sc2nc(NCc3ccccc3)[nH]c(=O)c2c1C .
Reply text: inactive

Inquiry: Each molecule tested received a call. Report the one for COc1ccc2ncccc2c1Cc1c(OC)ccc2ncccc12 .
Reply text: inactive

Inquiry: Each molecule tested received a call. Report the one for O=C(Nc1ccc(Cl)cc1)Nc1nc2ccc(OC(F)(F)F)cc2o1 .
Reply text: inactive

Inquiry: Each molecule tested received a call. Report the one for COc1cc(/C=C2\CN(S(=O)(=O)c3ccc(C)cc3)C/C(=C\c3cc(CN4CCOCC4)c(O)c(OC)c3)C2=O)cc(CN2CCOCC2)c1O .
Reply text: active

----------
// reported growth per item
Tested on: DU-145 prostate
assaySummary: NCI-60 one-dose screen, 48 h (100 = growth as untreated, 0 = no growth, -100 = all killed)
settings: 10 µM unless noted
This is part of a sample that, as a whole, favours compounds with a hit. Of some 83,000 tested, about 20% had one in any assay.
Answer format: numeric, % implied, no suffix.

growth recorded for this compound, COc1ccc(NC(=O)c2ccc(-c3ccccc3)cc2)c(C(N)=O)c1 , is 102

growth recorded for this compound, CCCCc1ccc(C(N)=O)nc1 , is 102

growth recorded for this compound, O=C1OC2(c3ccccc31)c1ccccc1-c1ccccc12 , is 114

growth recorded for this compound, CCN(Cc1cccc(S(=O)(=O)[O-])c1)c1ccc(C(=C2C=CC(=[N+](CC)Cc3cccc(S(=O)(=O)O)c3)C=C2)c2ccccc2S(=O)(=O)O)cc1 , is 107

growth recorded for this compound, N#Cc1c(-c2ccccc2)cc(-c2ccccc2)n(CCCCC(=O)O)c1=O , is 107

growth recorded for this compound, O=C(Nc1cccc(-n2cc(-c3ccncc3)c(-c3cc(O)cc(Cl)c3)n2)c1)Nc1ccc(Cl)c(Cl)c1 , is -15.1

growth recorded for this compound, NS(=O)(=O)c1cc2c(cc1Cl)NC=NS2(=O)=O , is 111

growth recorded for this compound, COc1cc(/C=C\C(C)=N\Nc2ccccc2)ccc1O , is 102

growth recorded for this compound, COc1cc(-c2nc3sc4c(c3c(=O)[nH]2)CCCCCC4)cc(OC)c1OC , is 12.1

growth recorded for this compound, Cc1ccc2nc(-c3ccc(N(C)C)c(Br)c3)cn2c1 , is 93.7

----------
Test system: K-562 leukemia
assaySummary: NCI-60 one-dose screen, 48 h
settings: 10 µM unless noted
About 83,000 compounds went through this panel and 20% of them were active in at least one assay; those are over-represented in the sample as a whole. The source made the active and inactive calls. The calls were made as follows: active = growth percent below 10; inactive = the rest.
Hi! Could you answer with just one of these? y = active, n = inactive

Inquiry: Each compound tested received a call. Report the one for COc1ccc(Oc2ccccc2NC(=O)CNC(=O)c2cccc3ccccc23)cc1 .
Reply text: y

Inquiry: Each compound tested received a call. Report the one for O=C(N/N=C/c1cccc(O)c1O)c1ccccc1 .
Reply text: n

Inquiry: Each compound tested received a call. Report the one for O=c1sc2ncnc3ncn1c32 .
Reply text: n

Inquiry: Each compound tested received a call. Report the one for CC[C@@H](C)/C=C(C)/C=C/C(=O)c1c(O)c(-c2ccc(O)cc2)cn(OC2CC(=O)CCC(C)OC(=O)CC2O)c1=O (stereo partly specified) .
Reply text: n

Inquiry: Each compound tested received a call. Report the one for CC(C)Cn1cnc2c(NCn3nc(-c4cc(Cl)cc(Cl)c4Cl)n(/N=C/c4ccc(Cl)cc4)c3=S)nc3ccccc3c21 .
Reply text: n

Inquiry: Each compound tested received a call. Report the one for O=C1N=C(N2CCOCC2)S/C1=C\c1cn(-c2ccccc2)nc1-c1ccccc1 .
Reply text: n

Inquiry: Each compound tested received a call. Report the one for CCC(=O)Nc1cc2c(cc1Cl)-c1ccccc1C2 .
Reply text: n

Inquiry: Each compound tested received a call. Report the one for O=c1[nH]c(N2CCC(Cc3ccccc3)CC2)nc2sc3c(c12)CCCC3 .
Reply text: n

Inquiry: Each compound tested received a call. Report the one for Cc1cc2c(cc1C)[n+](Cc1ccc3ccccc3c1)cn2Cc1ccc2ccccc2c1 .
Reply text: y

Inquiry: Each compound tested received a call. Report the one for C[C@H](C(=O)N[C@@H](Cc1ccc(-c2ccccc2)cc1)C(=O)NC1CC(C)(C)N(C)C(C)(C)C1)c1ccc(-c2ccccc2)c(F)c1 .
Reply text: y

Inquiry: Each compound tested received a call. Report the one for COc1ccc2c(c1)c(CC(=O)[Se]C)c(C)n2C(=O)c1ccc(Cl)cc1 .
Reply text: n

Inquiry: Each compound tested received a call. Report the one for CN1CCN(CCCOc2ccc3ncnc(Nc4ccc(OCc5cccc(F)c5)c(Cl)c4)c3c2)CC1 .
Reply text: y

Inquiry: Each compound tested received a call. Report the one for CC[C@@H](c1ccc(O)c(O)c1)[C@@H](CC)c1ccc(O)c(O)c1 .
Reply text: n

Inquiry: Each compound tested received a call. Report the one for CC12CCC3C(=CCc4cc(O)ccc43)C1CCC2=O (stereo unspecified) .
Reply text: n

Inquiry: Each compound tested received a call. Report the one for CC(=O)c1ccc(NS(=O)(=O)c2ccc([N+](=O)[O-])cc2)cc1 .
Reply text: n
